System: DCAMKL3
Construct: gene DCLK3
Measurement setup: concentration: 1 μM, replicates: in singlicate; n = 1;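 also: KINOMEscan kinase panel screen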
Lab note: compare %Inh against 5%. Equal or greater, write MET. Smaller, write NOT MET.

{"columns": ["Compound", "Assigned category"],
 "data": [
  ["O=C(NCCCN1CCOCC1)c1cccc(Nc2nccc(Nc3ccc(Oc4ccccc4)cc3)n2)c1 [GW663929]", "NOT MET"],
  ["COc1ccc(Nc2ncc(C#N)c(Nc3ccccc3C(N)=O)n2)cc1N1CCN(C)CC1.Cl [GSK1558669]", "MET"],
  ["Cc1cccc(-c2nc(Nc3ccc4ncsc4c3)c3ccccc3n2)n1 [GW867588]", "NOT MET"],
  ["O=C1Cc2cc(Nc3nc(NCc4cccc(S(=O)(=O)C(F)(F)F)c4)ncc3C(F)(F)F)ccc2N1", "MET"],
  ["CN1c2ccc(CNc3ccc(F)cc3)cc2-c2c(cnn2C)S1(=O)=O", "NOT MET"],
  ["COCCNC(=O)c1ccc(-c2cc(C(=O)NC3CC3)cc(F)c2C)cc1 [GW868318]", "MET"],
  ["Fc1ccc(-c2ncn(CCCN3CCOCC3)c2-c2ccccn2)cc1 [SB-211742]", "MET"],
  ["Cn1ccc2ncnc(Oc3ccc(NC(=O)Nc4ccncc4)c(Cl)c3)c21", "NOT MET"],
  ["Cc1nnc(-c2ccc(C)c(-c3ccc(C(=O)Nc4ccc(NS(C)(=O)=O)cc4)cc3)c2)o1 [GW702865]", "NOT MET"],
  ["NS(=O)(=O)c1cccc(-c2ccc3nccc(-c4cccc(S(N)(=O)=O)c4)c3c2)c1 [GW867253]", "NOT MET"],
  ["CC(C)Oc1ccc2c(-c3ccnc(Nc4ccc(N5CCN(C)CC5)cc4)n3)cnn2n1 [GW696155]", "MET"],
  ["Cc1nnc(-c2ccc3occ(-c4ccc(C(C)O)cc4)c3c2)o1 (stereo not drawn)", "MET"],
  ["O=C1NC(=O)C(N2CCc3ccccc32)=C1c1cccc(Cl)c1 [SB-408010]", "MET"],
  ["[2H]C([2H])(c1cccc(C(F)(F)F)c1C)n1ccn2c(=O)nc(N3CCOCC3)cc12 [GSK2336394]", "MET"],
  ["Cl.Oc1cccc(Nc2ccnc3cc(-c4ccncc4)ccc23)c1 [GW494601]", "MET"],
  ["Cc1cccc(Cn2ccn3c(=O)cc(N4CCOCC4)nc23)c1 [GSK2297542]", "MET"],
  ["COc1ccc(Nc2nccc(N3CCC(NC(=O)Nc4cccc(C(C)=O)c4)C3)n2)cc1 (stereo not drawn) [GSK1379731]", "NOT MET"]
]}

====

System: MYLK2
Measurement setup: concentration: 1 μM, replicates: in singlicate; n = 1
Threshold 1%. %Inh below it: fulfilled. %Inh at it or above: not fulfilled.

{"columns": ["Compound", "Assigned category"],
 "data": [
  ["Cc1cccc(Cn2ccn3c(=O)cc(N4CCOCC4)nc23)c1", "not fulfilled"],
  ["COc1ccc(COc2cc(-n3cnc4ccccc43)sc2C(N)=O)cc1", "fulfilled"],
  ["O=C(Nc1cccc(-c2nn3ncccc3c2-c2ccnc(Nc3cccc(C(F)(F)F)c3)n2)c1)c1c(F)cccc1F", "fulfilled"],
  ["CN1c2ccc(NCc3ccc(F)cc3)cc2-c2c(cnn2C)S1(=O)=O", "fulfilled"],
  ["O=C(c1ccc(-c2cc(-c3c[nH]nc3-c3ccccn3)ccn2)cc1)N1CCOCC1", "fulfilled"],
  ["CCc1ccnc(/C=C/c2n[nH]c3cc(Sc4ccccc4C(=O)NC)ccc23)c1", "fulfilled"],
  ["N#Cc1c(N2CCOCC2)sc(-c2ccn[nH]2)c1-c1ccc(Cl)cc1", "not fulfilled"],
  ["Cc1c2ccc(N(C)c3ccnc(Nc4cccc(S(N)(=O)=O)c4)n3)cc2nn1Cc1ccccc1.Cl.Cl", "fulfilled"],
  ["CC(C)Oc1ccc2c(-c3ccnc(Nc4ccc(N5CCN(C)CC5)cc4)n3)cnn2n1", "not fulfilled"],
  ["Cl.Oc1cccc(Nc2ccnc3cc(-c4ccncc4)ccc23)c1", "not fulfilled"],
  ["Cc1cn2c(=O)cc(N3CCOCC3)nc2n1Cc1cccc(Cl)c1Cl", "not fulfilled"],
  ["COc1cc2ncn(-c3cc(OCc4sccc4Cl)c(C(N)=O)s3)c2cc1OC", "not fulfilled"],
  ["COc1ccc(S(=O)(=O)NC2CCN(c3cc(C)nc(Nc4cccc(C#N)c4)n3)CC2)cc1.O=C(O)C(F)(F)F", "fulfilled"],
  ["Cn1cc(-c2ccc3c(c2)CCN3C(=O)Cc2ccccc2Cl)c2c(N)ncnc21", "not fulfilled"],
  ["CN(C1=C(c2ccccc2)C(=O)NC1=O)c1ccccc1", "not fulfilled"],
  ["O=c1cc(N2CCOCC2)nc2n(Cc3cccc4ccccc34)ccn12", "fulfilled"],
  ["Cc1cccc(-c2nc(Nc3ccc4ncsc4c3)c3ccccc3n2)n1", "fulfilled"],
  ["NCC(NC(=O)c1cc(-c2cn[nH]c2)c(-c2ccnc3[nH]ccc23)s1)c1ccccc1.O=C(O)C(F)(F)F.O=C(O)C(F)(F)F (centres unmarked)", "not fulfilled"],
  ["NS(=O)(=O)c1cccc(-c2ccc3nccc(-c4cccc(S(N)(=O)=O)c4)c3c2)c1", "fulfilled"],
  ["CN(C(=O)c1ccc(-c2cc(-c3c[nH]nc3-c3ccccn3)ccn2)cc1)C1CCOCC1", "fulfilled"],
  ["COc1ccc(Nc2nccc(N3CCC(NC(=O)Nc4cc(C)ccc4C)C3)n2)cc1 (centres unmarked)", "fulfilled"],
  ["Cc1cccc(-c2nc(-c3ccc(S(C)(=O)=O)cc3)sc2-c2ccncc2)c1", "fulfilled"],
  ["Cc1nnc(-c2ccc(C)c(-c3ccc(C(=O)Nc4ccc(NS(C)(=O)=O)cc4)cc3)c2)o1", "fulfilled"],
  ["O=c1cc(N2CCOCC2)nc2n(Cc3cccc(F)c3)ccn12", "fulfilled"],
  ["Fc1ccc(-c2ncn(CCCN3CCOCC3)c2-c2ccccn2)cc1", "not fulfilled"],
  ["COc1ccc(CNC(=O)NC2CCN(c3ccnc(Nc4ccc(OC)cc4)n3)C2)cc1 (centres unmarked)", "not fulfilled"],
  ["O=c1cc(N2CCOCC2)nc2n(Cc3cccc(C(F)(F)F)c3)ccn12", "fulfilled"],
  ["COc1cc2c(cc1OC[C@@H](O)CO)ncc1c3ccc(C#N)cc3[nH]c21", "not fulfilled"],
  ["O=C1Cc2cc(Nc3nc(NCc4cccc(S(=O)(=O)C(F)(F)F)c4)ncc3C(F)(F)F)ccc2N1", "fulfilled"],
  ["CC(=O)Nc1ccc(COc2ccc(Nc3ccnc4cc(-c5ccccn5)ccc34)cc2)cc1.Cl", "not fulfilled"],
  ["Cc1nnc(-c2ccc3ncc(-c4ccc(S(C)=O)cc4)n3c2)o1 (centres unmarked)", "not fulfilled"],
  ["Cc1nnc(-c2ccc3occ(-c4ccc(C(C)O)cc4)c3c2)o1 (centres unmarked)", "not fulfilled"]
]}

====

Tested on: STK39
Measurement setup: concentration: 1 μM, replicates: in singlicate; n = 1
Lab note: compare %Inh against 2%. Equal or greater, write Y. Smaller, write N.

{"columns": ["Compound", "Assigned category"],
 "data": [
  ["COc1ccc(COc2cc(-n3cnc4ccccc43)sc2C(N)=O)cc1", "N"],
  ["CN(C(=O)c1ccc(-c2cc(-c3c[nH]nc3-c3ccccn3)ccn2)cc1)C1CCOCC1", "Y"],
  ["O=C(Nc1cccc(-c2nn3ncccc3c2-c2ccnc(Nc3cccc(C(F)(F)F)c3)n2)c1)c1c(F)cccc1F", "Y"],
  ["COc1ccc(Nc2nccc(N3CCC(NC(=O)Nc4cc(C)ccc4C)C3)n2)cc1 (stereo not shown)", "Y"],
  ["COc1cc(Nc2nccc(N3CCC(NC(=O)c4cccc(NC(C)=O)c4)C3)n2)cc(OC)c1OC (stereo not shown)", "N"],
  ["CSc1ccc(-c2cc3ncnc(SCC(=O)O)c3s2)cc1", "N"]
]}

====

Documented %Inh across a set of molecules
Test system: PRKCH
Measurement setup: concentration: 1 μM, replicates: in singlicate; n = 1

{"columns": ["Molecule", "%Inh"],
 "data": [
  ["CN1c2ccc(NCc3ccc(F)cc3)cc2-c2c(cnn2C)S1(=O)=O", "0%"],
  ["CSc1ccc(-c2cc3ncnc(SCC(=O)O)c3s2)cc1", "2%"],
  ["NS(=O)(=O)c1cccc(-c2ccc3nccc(-c4cccc(S(N)(=O)=O)c4)c3c2)c1 [GW867253]", "0%"],
  ["O=C(c1ccc(-c2cc(-c3c[nH]nc3-c3ccccn3)ccn2)cc1)N1CCOCC1 [GW812171]", "0%"]
]}

====

System: EPHB3
Measurement setup: concentration: 1 μM, replicates: in singlicate; n = 1

{"columns": ["Compound", "Measurement unit", "%Inh"],
 "data": [
  ["COc1ccc(COc2cc(-n3cnc4ccccc43)sc2C(N)=O)cc1", "%", 0],
  ["CCn1cnc2c(N)ncnc21", "%", 17],
  ["CN(C1=C(c2ccccc2)C(=O)NC1=O)c1ccccc1", "%", 11],
  ["COc1cc(Nc2nccc(N3CCC(NC(=O)c4cccc(NC(C)=O)c4)C3)n2)cc(OC)c1OC (stereo not shown)", "%", 17],
  ["COC(=O)Nc1nc2cc(Oc3ccc(NC(=O)Nc4cc(F)ccc4F)cc3)ccc2[nH]1.Cl", "%", 1],
  ["Cc1ccc(C(=O)NCC(N)=O)cc1-n1c(C)cc(OCc2ccc(F)cc2F)c(Br)c1=O", "%", 25],
  ["Cc1c(Cn2c(C)nn3c(=O)cc(N4CCOC(C)C4)nc23)cccc1C(F)(F)F (stereo not shown)", "%", 0],
  ["COCCNC(=O)c1ccc(-c2cc(C(=O)NC3CC3)cc(F)c2C)cc1", "%", 23],
  ["Cn1cc(-c2ccc3c(c2)CCN3C(=O)Cc2ccccc2Cl)c2c(N)ncnc21", "%", 0],
  ["Cl.Oc1cccc(Nc2ccnc3cc(-c4ccncc4)ccc23)c1", "%", 27],
  ["NS(=O)(=O)c1cccc(-c2ccc3ncc(N4CCOCC4)nc3c2)c1", "%", 9],
  ["CNc1ncnc2[nH]ncc12", "%", 0],
  ["COc1ccc(Nc2nccc(N3CCC(NC(=O)Nc4cccc(C(C)=O)c4)C3)n2)cc1 (stereo not shown)", "%", 9],
  ["O=C(NOCC1CC1)c1ccc(F)c(F)c1Nc1ccc(I)cc1Cl", "%", 0],
  ["CC(C)(C)n1cnc2c(N)ncnc21", "%", 0],
  ["O=C(NCCNc1ccnc(Nc2ccc(F)cc2)n1)Nc1ccccc1F", "%", 0],
  ["C[C@@H](Oc1cc(-n2cnc3ccc(NC(=O)NC(C)(C)C)cc32)sc1C(N)=O)c1ccccc1Cl", "%", 18],
  ["NS(=O)(=O)CCc1cccc(Nc2nccc(-c3c(-c4cccc(NC(=O)c5c(F)cccc5F)c4)nn4ccccc34)n2)c1", "%", 0],
  ["Cc1cccc(Cn2ccn3c(=O)cc(N4CCOCC4)nc23)c1", "%", 13]
]}
